Tested on: UACC-62 melanoma
Assay: NCI tumour cell line growth inhibition, 48 h
Parameter: TGI. Scope: all listed entries.

Some solved entries appear below for comparison.
[
  {
    "compound": "FC(F)(F)P1C2C=CC(CC2)C1(F)F (centres undefined)",
    "result": "> 100 µM"
  },
  {
    "compound": "O=C(Nc1n[nH]c2nc(-c3ccco3)c(Br)cc12)C1CC1",
    "result": "> 25 µM"
  },
  {
    "compound": "Nc1cccc2c1C(=O)N(C1CCC(=O)NC1=O)C2=O (centres undefined)",
    "result": "> 100 µM"
  }
]

Next compound, please.
Value of measured TGI for the entry CC(C)=CC(=O)CC(=O)C(=O)Nc1ccc(C)c(C)c1 : > 100 µM
